- MEASUREMENT_DESCRIPTION: Stability in human plasma assessed as parent compound remaining after 24 hrs
- Type: ADME, cell-free
- SETUP_CONDITIONS: read-out: Stability
PARAMETER: remaining at 24 h (%)
Could you give me the number in %? Just the number is fine.

Solved entries:
- QUERY_SMILES: "CC(=O)N[C@@H](Cc1ccccc1)C(=O)N[C@@H](CCC(N)=O)C(=O)N[C@@H](CO)C(=O)N[C@@H](CCCCN)C(=O)N1CCC[C@@H]1C(=O)N[C@@H](CC(N)=O)C(=O)N[C@H](C(=O)N[C@@H](Cc1cnc[nH]1)C(=O)N[C@H](C(=O)N[C@@H](CC(=O)O)C(=O)N[C@@H]1CSSC[C@@H](C(=O)N[C@@H](CCCNC(=N)N)C(=O)N[C@@H](CC(C)C)C(=O)N[C@@H](C)C(=O)N[C@@H](C)C(=O)N[C@@H](CCCCN)C(=O)N[C@@H](CC(C)C)C(N)=O)NC(=O)[C@H](Cc2ccccc2)NC(=O)[C@H](Cc2ccc(O)cc2)NC1=O)C(C)(C)C)C(C)C"
  RESULT_UNIT: "%"
  VALUE: 49.3
- QUERY_SMILES: "CC(=O)N[C@@H](Cc1ccccc1)C(=O)N[C@@H](CCC(N)=O)C(=O)N[C@@H](CO)C(=O)N[C@@H](CCCCN)C(=O)N1CCC[C@@H]1C(=O)N[C@@H](CC(N)=O)C(=O)N[C@H](C(=O)N[C@@H](Cc1cnc[nH]1)C(=O)N[C@H](C(=O)N1CCC[C@H]1C(=O)N[C@H](CS)C(=O)N[C@@H](Cc1ccc(O)cc1)C(=O)N[C@@H](Cc1csc2ccccc12)C(=O)N[C@@H](CCS)C(=O)N[C@@H](CCCNC(=N)N)C(=O)N[C@@H](CC(C)C)C(=O)NC(C)(C)C(=O)N[C@H](C)C(=O)N[C@@H](CCCCN)C(=O)N[C@@H](CC(C)C)C(N)=O)C(C)C)C(C)C"
  RESULT_UNIT: "%"
  VALUE: 77.7
- QUERY_SMILES: "CC(=O)N[C@@H](Cc1ccccc1)C(=O)N[C@@H](CCC(N)=O)C(=O)N[C@@H](CO)C(=O)N[C@@H](CCCCN)C(=O)N1CCC[C@@H]1C(=O)N[C@@H](CC(N)=O)C(=O)N[C@H](C(=O)N[C@@H](Cc1cnc[nH]1)C(=O)N[C@H](C(=O)N[C@@H](CC(=O)O)C(=O)NCC(=O)N[C@@H](Cc1ccc(O)cc1)C(=O)N[C@@H](Cc1ccccc1)C(=O)N[C@@H](CCC(=O)O)C(=O)N[C@@H](CCCNC(=N)N)C(=O)N[C@@H](CC(C)C)C(=O)NC(C)(C)C(=O)N[C@@H](C)C(=O)N[C@@H](CCCCN)C(=O)N[C@@H](CC(C)C)C(N)=O)c1ccccc1)C(C)C"
  RESULT_UNIT: "%"
  VALUE: 34.7
- QUERY_SMILES: "CC(=O)N[C@@H](Cc1ccccc1)C(=O)N[C@@H](CCC(N)=O)C(=O)N[C@@H](CO)C(=O)N[C@@H](CCCCN)C(=O)N1CCC[C@@H]1C(=O)N[C@@H](CC(N)=O)C(=O)N[C@H](C(=O)N[C@@H](Cc1cnc[nH]1)C(=O)N[C@H](C(=O)N1CCC[C@H]1C(=O)N[C@@H]1CSSCC[C@@H](C(=O)N[C@@H](CCCNC(=N)N)C(=O)N[C@@H](CC(C)C)C(=O)NC(C)(C)C(=O)N[C@@H](C)C(=O)N[C@@H](CCCCN)C(=O)N[C@@H](CC(C)C)C(N)=O)NC(=O)[C@H](Cc2ccccc2)NC(=O)[C@H](Cc2ccc(O)cc2)NC1=O)C(C)C)C(C)C"
  RESULT_UNIT: "%"
  VALUE: 40.7
- QUERY_SMILES: "CC(=O)N[C@@H](Cc1ccccc1)C(=O)N[C@@H](CCC(N)=O)C(=O)N[C@@H](CO)C(=O)N[C@@H](CCCCN)C(=O)N(CC(=O)N[C@@H](CC(N)=O)C(=O)N[C@H](C(=O)N[C@@H](Cc1cnc[nH]1)C(=O)N[C@H](C(=O)N[C@@H](CC(=O)O)C(=O)NCC(=O)N[C@@H](Cc1ccc(O)cc1)C(=O)N[C@@H](Cc1ccccc1)C(=O)N[C@@H](CCC(=O)O)C(=O)N[C@@H](CCCNC(=N)N)C(=O)N[C@@H](CC(C)C)C(=O)NC(C)(C)C(=O)N[C@@H](C)C(=O)N[C@@H](CCCCN)C(=O)N[C@@H](CC(C)C)C(N)=O)C(C)C)C(C)C)C1CCCCC1"
  RESULT_UNIT: "%"
  VALUE: 17.4

If you can, please state the reported remaining at 24 h value of CC(=O)N[C@@H](Cc1ccccc1)C(=O)N[C@@H](CCC(N)=O)C(=O)N[C@@H](CO)C(=O)N[C@@H](CCCCN)C(=O)N1CCC[C@@H]1C(=O)N[C@@H](CC(N)=O)C(=O)N[C@H](C(=O)N[C@@H](Cc1c[nH]cn1)C(=O)N[C@H](C(=O)N[C@@H](CC(=O)O)C(=O)NCC(=O)N[C@@H](Cc1ccc(O)cc1)C(=O)N[C@@H](Cc1ccccc1)C(=O)N[C@@H](CCC(=O)O)C(=O)N[C@@H](CCCNC(=N)N)C(=O)N[C@@H](CC(C)C)C(=O)NC(C)(C)C(=O)N[C@@H](C)C(=O)N[C@@H](CCCCN)C(=O)N[C@@H](CC(C)C)C(N)=O)C1CCCCC1)C(C)C . 27.6

If you can, please state the reported remaining at 24 h value of CC(C)C[C@@H]1NC(=O)[C@H](CCCCN)NC(=O)[C@H](C)NC(=O)C(C)(C)NC(=O)[C@H](CC(C)C)NC(=O)[C@H](CCCNC(=N)N)NC(=O)[C@H](CCC(=O)O)NC(=O)[C@H](Cc2ccccc2)NC(=O)[C@H](Cc2ccc(O)cc2)NC(=O)CNC(=O)[C@H](CC(=O)O)NC(=O)[C@H](C(C)C)NC(=O)[C@H](Cc2cnc[nH]2)NC(=O)[C@H](C(C)C)NC(=O)[C@H](CC(N)=O)NC(=O)[C@H]2CCCN2C(=O)[C@H](CCCCN)NC(=O)[C@H](CO)NC(=O)[C@H](CCC(N)=O)NC(=O)[C@H](Cc2ccccc2)NC(=O)CCOCCOCCOCCNC1=O . 62.8

* * *

- MEASUREMENT_DESCRIPTION: Stability in mouse plasma assessed as parent compound remaining after 24 hrs
- Assay type: ADME, cell-free
- SETUP_CONDITIONS: read-out: Stability
PARAMETER: remaining at 24 h (%)
Could you give me the number in %? Just the number is fine.

If you can, please state the reported remaining at 24 h value of CC(=O)N[C@@H](Cc1ccccc1)C(=O)N[C@@H](CCC(N)=O)C(=O)N[C@@H](CO)C(=O)N[C@@H](CCCCN)C(=O)N1CCC[C@@H]1C(=O)N[C@@H](CC(N)=O)C(=O)N[C@H](C(=O)N[C@@H](Cc1cnc[nH]1)C(=O)N[C@H](C(=O)N1CCC[C@H]1C(=O)NCC(=O)N[C@@H](Cc1ccc(O)cc1)C(=O)N[C@@H](Cc1ccccc1)C(=O)NC(C)(C)C(=O)N[C@@H](CCCNC(=N)N)C(=O)N[C@@H](CC(C)C)C(=O)NC(C)(C)C(=O)N[C@@H](C)C(=O)N[C@@H](CCCCN)C(=O)N[C@@H](CC(C)C)C(N)=O)C(C)C)C(C)C . 31.2
